Tested on: Nanoluciferase (engineered Oplophorus gracilirostris luciferase)
Experiment: Primary Nanoluciferase (NLuc) qHTS assay for identification of artifact compounds. (AID 1845222);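 further: NLuc secreted into diluted conditioned medium of S16 cells; 0% = DMSO and -100% = no enzyme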
Conditions: NLuc-conditioned medium, Nano-Glo luminescence, 5 min; series mostly up to 54.1 µM
Active and inactive are the calls of the source. The call rests on the fitted dose curve; in most records, active means well fitted inhibition curve with a large enough effect; inconclusive means small, poorly fitted or top-dose-only effect; inactive means flat fitted curve, though single readings scatter.
metric: activity, negative = inhibition

compound | activity, negative = inhibition
OC[C@H]1O[C@@H](OCCc2ccc(O)cc2)[C@H](O)[C@@H](O)[C@@H]1O | inactive
COc1c(C)c2c(c(O)c1C/C=C(\C)CC/C=C(\C)CCC(=O)O)C(=O)OC2 | inactive
O=C1N(CC2CCCCN2)CCN1c1ccccc1 (stereo unspecified) | inactive
COc1ccc(/C=C/C(=O)O[C@@H]2[C@@H](O)[C@H](C)O[C@@H](OC3C4C=COC(O[C@@H]5O[C@H](CO)[C@@H](O)[C@H](O)[C@H]5O)C4C4(CO)OC34)[C@@H]2O)cc1OC (stereo partly specified) | inactive
COC1CC(=O)C23C(=O)NC(CC(C)C)C2C(C)C(C)=CC3/C=C(\C)CCC1O (stereo unspecified) | inactive
CC1(C)C(O)CCC2(C)C1C(O)C=C1COC(=O)C12O (stereo unspecified) | inactive

Batch of 5 compounds: report activity, negative = inhibition for each.
1. CC(C)NC[C@H](O)COc1ccc(CCOCC2CC2)cc1
2. COC(=O)C1C(CC(C)=O)C=CC(O)C12Oc1cc(C)cc(O)c1C2=O (stereo unspecified)
3. COc1c2c(c(C)c3c1C(=O)OC3)O[C@@]1(C)C[C@@H](O)[C@]34O[C@](OC)(CC[C@]3(C)[C@H]1C2)OC4(C)C
4. CC(=O)N[C@H]1CCN(c2ccc(C3=NOC(CN[S+](=O)([O-])C(C)C)C3)cc2F)C1 (stereo partly specified)
5. COc1cc(/C=C/c2cc(O)cc(O[C@@H]3O[C@H](CO)[C@@H](O)[C@H](O)[C@H]3O)c2)ccc1O

[reply]
["inactive", "inactive", "inactive", "inactive", "inactive"]

Batch of 5 compounds: report activity, negative = inhibition for each.
1. C=CC(C)(O)CO[C@@H]1O[C@H](CO)[C@@H](O)[C@H](O)[C@H]1O (stereo partly specified)
2. CC1OC(OC2C(CO)OC(OCC3OC(OC(=O)C45CCC(C)(C)CC4C4=CCC6C7(C)CCC(OC8OC(C(=O)O)C(O)C(OC9OC(CO)C(O)C(O)C9O)C8O)C(C)(C)C7CCC6(C)C4(C)CC5)C(O)C(O)C3O)C(O)C2O)C(O)C(O)C1O (stereo unspecified)
3. C=C1CC[C@@H]2[C@](C)(CO[C@@H]3O[C@H](CO)[C@@H](O)[C@H](O)[C@H]3O)CCC[C@@]2(C)[C@@H]1CCC1=CCOC1=O
4. CC(C)C1=CC2=CCC3[C@](C)(CCC[C@@]3(C)C(=O)O)C2CC1O (stereo partly specified)
5. CCC[C@@H]1C[C@@H](C(=O)N[C@H](C(C)Cl)[C@H]2O[C@H](SC)[C@H](O)[C@@H](O)[C@H]2O)N(C)C1 (stereo partly specified)

[reply]
inactive
0% [at 11.6 µM] (inactive)
inactive
inactive
inactive
